Test system: OCI-AML2
assay_summary: cell viability relative to vehicle control; higher = less cytotoxic;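 further: after 48 h exposure read by CellTiter-Glo luminescence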
setup_conditions: 10 µM; SRSF2 genotype: P95H/wt
Structures can show the parent of a compound that is named as a salt.
measured_quantity: cell viability (%)

[[record]]
compound = "O=Cc1ccccc1"
result_unit = "%"
value = 85.4

[[record]]
compound = "COc1cc(C)[nH]c(=O)c1CNC(=O)c1c(C)n([C@H](C)C2CCN(CC(F)(F)F)CC2)c2ccccc12"
result_unit = "%"
value = 103

[[record]]
compound = "CNCC(=O)c1ccc(O)c(O)c1 [Adrenalone HCl]"
result_unit = "%"
value = 90.5

[[record]]
compound = "COC1CC(OC2CCC3(C)C(CCC45OC46CCC(C(C)=O)C6(C)C(OC(C)=O)C(OC(=O)c4ccccc4)C35)C2)OC(C)C1OC1OC(C)C(O)C(OC)C1O (centres undefined) [Tenacissoside I]"
result_unit = "%"
value = 95


====

Tested on: K562
assay_summary: cell viability relative to vehicle control; higher = less cytotoxic
setup_conditions: 10 µM; SRSF2 genotype: SRSF2 wt/wt
Just a reminder that ties go to condition not met: only cell viability strictly below 80% counts as condition met.

[[record]]
compound = "c1c2c(cc3c1OCO3)-c1cc3ccc4c(c3c[n+]1CC2)OCO4 [Coptisine chloride]"
class_label = "condition not met"

[[record]]
compound = "Cc1c([C@H](C)[C@@H]2NC[C@@H](C)C[C@H]2O)ccc2c1C[C@H]1[C@H]2CC=C2C[C@@H](O)CC[C@@]21C"
class_label = "condition met"

[[record]]
compound = "O=C1CCC[C@@H]2[C@H]3CCCN4CCC[C@@H](CN12)[C@@H]34 [Matrine ((+)-Matrine)]"
class_label = "condition not met"

[[record]]
compound = "O=C(CC1NCCCC1O)Cn1cnc2cc(Br)c(Cl)cc2c1=O (stereo not drawn)"
class_label = "condition met"

[[record]]
compound = "CC(C)(C)[C@]1(O)CC2OC(=O)CC23C(=O)OC2OC(=O)[C@H](O)C231 (stereo partly drawn) [Bilobalide]"
class_label = "condition not met"

[[record]]
compound = "COc1ccc(/C=C/c2cc(OC)cc(OC)c2)cc1 [3,4',5-Trimethoxy-trans-stilbene]"
class_label = "condition met"

[[record]]
compound = "O=C(O)c1nn(Cc2ccc(Cl)cc2Cl)c2ccccc12"
class_label = "condition not met"

[[record]]
compound = "CCNc1nc(Cl)nc(NC(C)C)n1"
class_label = "condition not met"


====

System: OCI-AML2
assay_summary: cell viability relative to vehicle control; higher = less cytotoxic
setup_conditions: 10 µM; SRSF2 genotype: wt/wt
Where a name gives a salt, the structure may show the parent alone.
Param label: returns label 1 when cell viability < 90%, returns label 0 otherwise, including exact equality.

[[record]]
molecule = "CN1CC=C(c2ccccc2)CC1 [MPTP hydrochloride]"
class_label = "label 0"

[[record]]
molecule = "O=c1ccc2cc3ccoc3c(O)c2o1"
class_label = "label 0"

[[record]]
molecule = "CN(C)[C@@H]1C(=O)C(C(N)=O)=C(O)[C@@]2(O)C(=O)C3=C(O)c4c(O)ccc(Cl)c4[C@@](C)(O)[C@H]3C[C@@H]12 [Chlortetracycline HCl]"
class_label = "label 0"

[[record]]
molecule = "C=C[C@H]1CN2CC[C@]3(C(=O)Nc4ccccc43)[C@@H]2C[C@@H]1/C(=C\\OC)C(=O)OC"
class_label = "label 0"

[[record]]
molecule = "Cc1ccccc1-n1c(Cn2ncc3c(N)ncnc32)nc2cccc(C)c2c1=O"
class_label = "label 1"

[[record]]
molecule = "CC(C)(C)c1cc(C=C(C#N)C#N)cc(C(C)(C)C)c1O [Tyrphostin 9 (SF 6847)]"
class_label = "label 1"

[[record]]
molecule = "CC(=O)Nc1ccc(Cc2ccc(NC(C)=O)cc2)cc1"
class_label = "label 0"

